Data provenance: patent US4372948A

# Test system: level of blood sugar
# procedure-text: Anti-hyperglycemia activity (reduction of blood sugar level)
# Type: in vivo, rat (Wistar, streptozotocin)
# details: oral, 300 mg/kg, 3 hrs.
observable: Reduced level of blood sugar after 3 hrs. (mg/dL)
Report the value in mg/dL with no unit label.

Test system level of blood sugar; read-out Reduced level of blood sugar after 3 hrs.; what value for C[C@@H]1OC(Nc2ccc(C(N)=O)cc2)[C@H](O)[C@H](O)[C@H]1O (stereo partly drawn) [Compound 5, p-aminobenzoic acid amide-N-L-rhamnoside] ?
91

Short answer please: Reduced level of blood sugar after 3 hrs., level of blood sugar, entry O=C(Oc1ccccc1)c1ccc(NC2O[C@H](CO)[C@@H](O[C@H]3O[C@H](CO)[C@@H](O[C@H]4O[C@H](CO)[C@@H](O)[C@H](O)[C@H]4O)[C@H](O)[C@H]3O)[C@H](O)[C@H]2O)cc1 (some centres unmarked) [Compound 10, phenyl p-aminobenzoate-N-maltotrioside]
99

Form: Entry = C[C@@H]1OC(Nc2ccccc2C(=O)Oc2ccccc2)[C@H](O)[C@H](O)[C@H]1O (stereo partly drawn) [Compound 6, phenyl o-aminobenzoate-N-L-rhamnoside] | System = level of blood sugar | Reduced level of blood sugar after 3 hrs. = ____
121

Identify the measured Reduced level of blood sugar after 3 hrs. of O=C(OC1CCCCC1)c1ccc(NC2OC[C@@H](O)[C@H](O)[C@H]2O)cc1 (stereo partly drawn) [Compound 18, cyclohexyl p-aminobenzoate-N-D-xyloside] for level of blood sugar.
121

Find Reduced level of blood sugar after 3 hrs. (level of blood sugar) for the entry O=C(OCC1CCCCC1)c1ccc(NC2OC[C@@H](O)[C@@H](O)[C@H]2O)cc1 (some centres unmarked)
120

---

# System: level of blood sugar
# procedure-text: Anti-hyperglycemia activity (reduction of blood sugar level)
# Format: in vivo, rat (Wistar, streptozotocin)
# details: oral, 300 mg/kg, 6 hrs.
observable: Reduced level of blood sugar after 6 hrs. (mg/dL)
Give the number; mg/dL is assumed, so skip it.

Recorded Reduced level of blood sugar after 6 hrs. for O=C(OCc1ccccc1)c1ccc(NC2O[C@H](CO)[C@@H](O)[C@H](O)[C@H]2O)cc1 (stereo partly drawn) [Compound 14, benzyl p-aminobenzoate-N-D-glucoside] , please?
93

Please give the measured Reduced level of blood sugar after 6 hrs. for this molecule: C[C@@H]1OC(Nc2cccc(C(=O)OCC3CCCCC3)c2)[C@@H](O)[C@H](O)[C@@H]1O (some centres unmarked)
150

What value of Reduced level of blood sugar after 6 hrs. has been recorded for this entry: NC(=O)c1ccc(NC2OC[C@@H](O)[C@H](O)[C@H]2O)cc1 (stereo partly drawn) [Compound 3, p-aminobenzoic acid amide-N-D-xyloside]
115

# Reduced level of blood sugar after 6 hrs. lookup, item O=C(OC1CCCCC1)c1cccc(NC2O[C@H](CO)[C@@H](O)[C@H](O)[C@@H]2O)c1 (stereo partly drawn) [Compound 17, cyclohexyl m-aminobenzoate-N-D-mannoside]
145

Look up Reduced level of blood sugar after 6 hrs. for this molecule: O=C(OC1CCCCC1)c1ccc(NC2O[C@H](CO)[C@@H](O[C@H]3O[C@H](CO)[C@@H](O[C@H]4O[C@H](CO)[C@@H](O)[C@H](O)[C@H]4O)[C@H](O)[C@H]3O)[C@H](O)[C@H]2O)cc1 (some centres unmarked)
120

---

# System: level of blood sugar
# procedure-text: Anti-hyperglycemia activity (reduction of blood sugar level)
# Assay type: in vivo, rat (Wistar, streptozotocin)
# details: oral, 300 mg/kg, 6 hrs.
observable: Reduced level of blood sugar after 6 hrs. (mg/dL)
// units = mg/dL; emit number, no label

Could you tell me which Reduced level of blood sugar after 6 hrs. is on file for O=C(OCc1ccccc1)c1ccc(NC2C[C@H](O)[C@H](O)CO2)cc1 (stereo partly drawn) [Compound 13, benzyl p-aminobenzoate-N-D-deoxyriboside] ?
113

Quick one: Reduced level of blood sugar after 6 hrs. of O=C(OC1CCCCC1)c1ccc(NC2OC[C@@H](O)[C@H](O)[C@H]2O)cc1 (stereo partly drawn) [Compound 18, cyclohexyl p-aminobenzoate-N-D-xyloside] ?
165

What value of Reduced level of blood sugar after 6 hrs. has been reported for the following compound? COC(=O)Cc1ccc(NC2O[C@@H](C)[C@H](O)[C@@H](O)[C@H]2O)cc1 (stereo partly shown) [Compound 26]
136

Field request: Reduced level of blood sugar after 6 hrs. | item: O=C(OCC1CCCCC1)c1ccc(NC2OC[C@@H](O)[C@@H](O)[C@H]2O)cc1 (stereo partly shown) [Compound 23]
126

Query (compound): O=C(OCC1CCCCC1)c1ccc(NC2O[C@H](CO)[C@@H](O)[C@H](O)[C@H]2O)cc1 (stereo partly shown) [Compound 24] ; field requested: Reduced level of blood sugar after 6 hrs.
145

Reduced level of blood sugar after 6 hrs. lookup needed for NC(=O)c1ccccc1NC1(CO)OC[C@@H](O)[C@@H](O)[C@@H]1O (stereo partly drawn) [Compound 1, o-Aminobenzoic acid amide-N-D-fructoside] , thanks.
92

Fill in the blank: the reported Reduced level of blood sugar after 6 hrs. of C[C@@H]1OC(Nc2cccc(C(=O)OCc3ccccc3)c2)[C@@H](O)[C@H](O)[C@@H]1O (stereo partly drawn) [Compound 11, benzyl m-aminobenzoate-N-L-fucoside] is ____.
88
